wild type RET (Homo sapiens (Human), UniProt P07949) pIC50 data
Sequence (P07949 29-1114): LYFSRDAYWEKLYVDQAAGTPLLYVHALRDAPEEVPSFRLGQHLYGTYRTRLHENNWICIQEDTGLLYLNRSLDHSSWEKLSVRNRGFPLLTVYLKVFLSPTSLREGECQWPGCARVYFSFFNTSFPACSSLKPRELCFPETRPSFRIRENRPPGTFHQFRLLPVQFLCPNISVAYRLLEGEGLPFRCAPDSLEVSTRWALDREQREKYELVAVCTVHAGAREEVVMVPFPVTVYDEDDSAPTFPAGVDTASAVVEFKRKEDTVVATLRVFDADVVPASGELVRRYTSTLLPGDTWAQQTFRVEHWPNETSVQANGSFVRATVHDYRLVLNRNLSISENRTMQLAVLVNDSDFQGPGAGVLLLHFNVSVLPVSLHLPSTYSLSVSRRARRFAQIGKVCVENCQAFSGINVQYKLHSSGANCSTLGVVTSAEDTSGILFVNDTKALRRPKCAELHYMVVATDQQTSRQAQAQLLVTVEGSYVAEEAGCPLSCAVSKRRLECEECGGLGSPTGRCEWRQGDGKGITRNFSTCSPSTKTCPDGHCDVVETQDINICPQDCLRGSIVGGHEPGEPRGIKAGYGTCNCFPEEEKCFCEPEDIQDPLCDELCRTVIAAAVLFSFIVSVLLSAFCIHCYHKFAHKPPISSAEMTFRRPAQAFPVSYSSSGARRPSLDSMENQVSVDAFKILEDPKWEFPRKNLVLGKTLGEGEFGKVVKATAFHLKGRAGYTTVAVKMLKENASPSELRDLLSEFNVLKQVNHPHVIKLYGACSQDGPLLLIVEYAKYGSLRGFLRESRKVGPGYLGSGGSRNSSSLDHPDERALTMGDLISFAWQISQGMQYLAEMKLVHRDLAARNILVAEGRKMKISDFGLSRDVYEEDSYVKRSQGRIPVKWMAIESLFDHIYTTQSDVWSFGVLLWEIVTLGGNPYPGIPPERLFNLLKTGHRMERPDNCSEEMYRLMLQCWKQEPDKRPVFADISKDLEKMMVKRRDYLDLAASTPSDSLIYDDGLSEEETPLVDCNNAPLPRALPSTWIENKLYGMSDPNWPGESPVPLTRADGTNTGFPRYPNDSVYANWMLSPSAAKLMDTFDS
pIC50: −log10 of the molar value.

Solved cases below.
smiles=Cc1cc(Nc2cc(C)[nH]n2)nc(N2CCC(C)(C(=O)NCc3ccc(-n4cccn4)nc3)CC2)c1 result="> 8.00"
smiles=COC1(C(=O)NCc2ccc(-n3cccn3)nc2)CCN(c2nc(Nc3cc(C)[nH]n3)cc(C)c2C#N)CC1 result="> 8.00"
smiles=Cc1cc(Nc2cc(C)[nH]n2)nc(N2CC(O)(C(=O)NCc3ccc(-n4cccn4)nc3)C2)c1 result="7.00 to 8.00"
smiles=Cc1cc(Nc2cc(C)[nH]n2)nc(N2CC[C@@H](C(=O)NCc3ccc(-n4cccn4)nc3)[C@H](O)C2)c1 result="> 8.00"
smiles=COC1(C(=O)NCc2ccc(-n3cc(F)cn3)nn2)CN(c2nc(C)cc(Nc3cc(C)[nH]n3)n2)C1 result="7.00 to 8.00"

Please give the measured pIC50 for this molecule: `CCC1(C(=O)NCc2ccc(-n3cccn3)nc2)CCN(c2nc(C)cc(Nc3cc(C)[nH]n3)n2)CC1`
> 8.00

Item `COC1(C(=O)NCc2ccccc2)CCN(c2nc(C)cc(Nc3cc(C)[nH]n3)n2)CC1` has what recorded pIC50?
< 7.00

May I ask what pIC50 has been recorded for `COC1(C(=O)N[C@@H](C)c2ccc(-n3cc(F)cn3)nc2)CN(c2nc(C)cc(Nc3cc(C)[nH]n3)n2)C1` ?
> 8.00

Reported pIC50, molecule `COC1(C(=O)NCc2cnc(-n3ccc(C(F)F)n3)cn2)CN(c2nc(C)cc(Nc3cc(C)[nH]n3)n2)C1` : ____
7.00 to 8.00

Give its pIC50 value. Item: `COC1(C(=O)NCc2ccc(N3CC[C@H](F)C3)nc2)CN(c2nc(C)cc(Nc3cc(C)[nH]n3)n2)C1`
< 7.00

// pIC50 lookup, key: `COC1(C(=O)N[C@@H](C)c2ccc(-n3cc(F)cn3)nc2)CCN(c2cc(C)nc(Nc3cc(C)[nH]n3)n2)CC1`
> 8.00

###

pIC50 listing for selected compounds.
target: wild type RET (Homo sapiens (Human))
pIC50: −log10 of the molar value.

smiles=COC1(C(=O)NCc2ccc(-n3cc(F)cn3)nc2)CN(c2nc(Nc3cc(C)[nH]n3)cc(C)c2C#N)C1 result="> 8.00"
smiles=COC1(C(=O)N[C@@H](C)c2ccc(-n3cc(F)cn3)nc2)CN(c2cc(C)nc(Nc3cc(C)[nH]n3)n2)C1 result="> 8.00"
smiles=Cc1cc(Nc2cc(C)[nH]n2)nc(N2CC(C(=O)N[C@@H](C)c3ccc(-n4cc(F)cn4)nc3)C2)c1 result="> 8.00"
smiles=CCOC1(C(=O)N[C@@H](C)c2ccc(-n3cc(F)cn3)nc2)CN(c2cc(C)cc(Nc3cc(C)[nH]n3)n2)C1 result="> 8.00"
smiles=COC1(C(=O)NCc2ccc(-n3ccc(C4CC4)n3)nc2)CN(c2cc(C)cc(Nc3cc(C)[nH]n3)n2)C1 result="> 8.00"

Turning now to a further record.
What does the record list as pIC50 for `COC1(C(=O)NCc2ccc(N3CC(F)C3)nc2)CN(c2nc(C)cc(Nc3cc(C)[nH]n3)n2)C1` ?
< 7.00

###

The compounds listed here are annotated with their IC50.
biological target: RET V804L (Homo sapiens (Human), UniProt P07949, V804L); assay: RET V804L Gatekeeper Mutant Assay at KM (Caliper electrophoretic mobility shift); settings: 10 μM ATP (KM), read-out: V480L Mutant
Sequence (P07949 29-1114 V804L): as the sequence (P07949 29-1114) above, with V776L counted along it

// worked examples, IC50 included
compound="Cc1cc(Nc2cc(C)[nH]n2)nc(N2CC(C(=O)N[C@@H](C)c3ccc(-n4cc(F)cn4)nc3)C2)n1 [Compound 121]" result="< 10 nM"
compound="Cc1cc(Nc2cc(C)[nH]n2)nc(N2CCC(C)(C(=O)NCc3ccccc3)CC2)n1 [Compound 101]" result="10 to 100 nM"
compound="Cc1cc(Nc2cc(C)[nH]n2)nc(N2CC[C@H](C(=O)NCc3ccc(-n4cccn4)nc3)[C@H](O)C2)c1 [Compound 135]" result="10 to 100 nM"
compound="COC1(C(=O)NCc2ccc(-n3cc(F)cn3)nn2)CN(c2nc(C)cc(Nc3cc(C)[nH]n3)n2)C1 [Compound 150]" result="10 to 100 nM"
compound="COC1(C(=O)N[C@@H](C)c2cnc(-n3cc(F)cn3)cn2)CCN(c2nc(C)cc(Nc3cc(C)[nH]n3)n2)CC1 [Compound 221]" result="< 10 nM"
compound="Cc1cc(Nc2cc(C)[nH]n2)nc(N2C[C@H](C(=O)N[C@@H](C)c3ccc(-n4cc(F)cn4)nc3)[C@H]2C)n1 [Compound 144]" result="< 10 nM"

Can you share its IC50? I mean this compound: Cc1cc(Nc2cc(C)[nH]n2)nc(N2CCC(CO)(C(=O)N[C@@H](C)c3ccc(-n4cc(F)cn4)nc3)CC2)c1 [Compound 217]
< 10 nM

Looking for the measured IC50 of COC1(C(=O)NCc2ccccc2)CCN(c2nc(C)cc(Nc3cc(C)[nH]n3)n2)CC1 [Compound 104] , can you help?
10 to 100 nM

Given the entry Cc1cc(Nc2cc(C)[nH]n2)nc(N2CC(C)(C(=O)N[C@@H](C)c3ccc(-n4cc(F)cn4)nc3)C2)c1 [Compound 139] , report its measured IC50.
< 10 nM

# input compound: CO[C@@]1(C(=O)N[C@@H](C)c2ccc(-n3cc(F)cn3)nc2)CN(c2nc(C)cc(Nc3cc(C)[nH]n3)n2)[C@@H]1C [Compound 198] ; wanted: its IC50
< 10 nM

Could you share which IC50 value was measured for Cc1cc(N2CCC(CC#N)(C(=O)N[C@@H](C)c3ccc(-n4cc(F)cn4)nc3)CC2)nc(Nc2cc(C)[nH]n2)n1 [Compound 224] ?
< 10 nM

Which IC50 reading was recorded for the compound Cc1cc(Nc2cc(C)[nH]n2)nc(N2CC(F)(C(=O)N[C@@H](C)c3ccc(-n4cc(F)cn4)nc3)C2)c1 [Compound 151] ?
< 10 nM

# IC50 lookup, item Cc1cc(Nc2cc(C)[nH]n2)nc(N2CCC(F)(C(=O)NCc3ccc(-n4cccn4)nc3)CC2)n1 [Compound 141]
< 10 nM

Return reported IC50; argument: Cc1cc(Nc2cc(C)[nH]n2)nc(N2CCC(O)(C(=O)N(C)Cc3ccc(-n4cccn4)nc3)CC2)n1 [Compound 162]
< 10 nM

For the compound COC1(C(=O)NCc2ccc(-n3cc(F)cn3)nc2)CN(c2nc(Nc3cc(C)[nH]n3)cc(C)c2C#N)C1 [Compound 184] , what IC50 is on record?
< 10 nM

Please give the measured IC50 for this compound: COC1(C(=O)NCc2ccc(-n3nc(C)cc3C)nc2)CN(c2nc(C)cc(Nc3cc(C)[nH]n3)n2)C1 [Compound 163]
10 to 100 nM

Requested read-out: IC50. Entry: COC1(C(=O)NCc2ccc(-n3cccn3)nc2)CCN(c2nc(Nc3cc(C)[nH]n3)cc(C)c2C#N)CC1 [Compound 207]
< 10 nM

###

Each entry below carries its reported pIC50.
target: RET V804L (Homo sapiens (Human), UniProt P07949, V804L); test: RET V804L Gatekeeper Mutant Assay at KM (Caliper electrophoretic mobility shift); settings: 10 μM ATP (KM), read-out: V480L Mutant
pIC50: −log10 of the molar value.

smiles=COC1(C(=O)NCc2ccc(N3CCC(F)(F)C3)nc2)CN(c2nc(C)cc(Nc3cc(C)[nH]n3)n2)C1 reported_metric=pIC50 result="7.00 to 8.00"
smiles=Cc1cc(Nc2cc(C)[nH]n2)nc(N2CCC(C(=O)NCc3ccc(-n4cccn4)nc3)CC2)n1 reported_metric=pIC50 result="> 8.00"
smiles=CCOc1ccc(CNC(=O)C2(O)CCN(c3nc(C)cc(Nc4cc(C)[nH]n4)n3)CC2)cc1 reported_metric=pIC50 result="7.00 to 8.00"

Fill in: pIC50 of `Cc1cc(Nc2cc(C3CC3)[nH]n2)nc(N2CCC(C)(C(=O)N[C@@H](C)c3ccc(-n4cc(F)cn4)nc3)CC2)c1` is ___
> 8.00

State the recorded pIC50 for this entry: `COC1(C(=O)N[C@@H](C)c2ccc(-n3cccn3)nc2)CCN(c2nc(C)cc(Nc3cc(C)[nH]n3)n2)CC1`
> 8.00

###

biological target: RET V804L (Homo sapiens (Human), UniProt P07949, V804L); assay: RET V804L Gatekeeper Mutant Assay at KM (Caliper electrophoretic mobility shift); type: biochemical; conditions: 10 μM ATP (KM), read-out: V480L Mutant
IC50 values, listed per item

Study these solved cases before continuing.
smiles=COC1(C(=O)NCc2ccc(-n3cccn3)nc2)CN(c2nc(Nc3cc(C)[nH]n3)cc(C)c2C#N)C1 result="< 0.01 µM"
smiles=Cc1cc(Nc2cc(C(F)F)cc(N3CC(F)(C(=O)NCc4cnc(-n5cc(F)cn5)cn4)C3)n2)n[nH]1 result="< 0.01 µM"

Attention now shifts to the item below.
Which IC50 reading was recorded for the compound `COC1(C(=O)NCc2ccc(-n3cccn3)nc2)CCN(c2nc(C)cc(Nc3cc(C)[nH]n3)n2)CC1` ?
< 0.01 µM

Source listed as patent US10227329B2.
